Test system: EfPiwi piRISC loaded with piRNA #1 (26 nt)
Assay: pre-steady-state target cleavage rate (min^-1); auxiliary factor: 500 nM Ephydatia muelleri Gtsf1; guide: piRNA #1 5'p-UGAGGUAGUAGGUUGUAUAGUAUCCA; MIWI and MILI are mouse PIWI proteins and EfPiwi is from a freshwater sponge; tags in brackets are library labels; higher = faster piRNA-guided slicing of the target
Criterion: pre-steady-state target cleavage rate meeting or surpassing 0.004. Met: condition met. Not met: condition not met.

biopolymerSequence: GGAGACGAUACUAUAGUACCUACUACCUCA
classification: condition met
--
biopolymerSequence: GGAGACGAUACUAUACGAACCUACUACCUCA
classification: condition met
--
biopolymerSequence: GGAGACGAUACUAUACAACCUACGUACCUCA
classification: condition met
--
biopolymerSequence: GGAGAGGAUACUAUACAACCAUACUACCUCA
classification: condition not met
--
biopolymerSequence: GGAGACCUUACUAUACAAUCUACUACCUCA
classification: condition met
--
biopolymerSequence: GGAGACCAUACUAUACAAGCUAGUACCUCA
classification: condition not met
--
biopolymerSequence: GGAGAGGAUACUAUACAACCUACUACCUAA
classification: condition met
--
biopolymerSequence: GGAGUGGAUACUAUAGAACCUACAACCUCA
classification: condition not met
--
biopolymerSequence: GGAGACCUUACUAUACUACCUACUACCUCA
classification: condition met
--
biopolymerSequence: GGAGUGGAUACUAUACAACCUACCUACCUCA
classification: condition met
--
biopolymerSequence: GGAGACCUAUGUGAUACAACCUACUACCUCA
classification: condition met
--
biopolymerSequence: GGAGACGAUACUAUAGAACCUAGUACCUCA
classification: condition not met
--
biopolymerSequence: GGAGACCAUACUAAUACAACCUACUACCUCA
classification: condition met
--
biopolymerSequence: GGAGAGGAUACUAUACAACCUACUAGCACA
classification: condition not met
--
biopolymerSequence: GGAGAGGAUAGUAUACUACCUACUACCUCA
classification: condition not met
--
biopolymerSequence: GGAGUGGAUACUAUACAACCUACUACCUA
classification: condition met
--
biopolymerSequence: GGAGACGAGACUAUACAACCUACUACCUCA
classification: condition met
--
biopolymerSequence: GGAGACGAUACUAUAGAACGUACUACCUCA
classification: condition not met
--
biopolymerSequence: GGAGACCUAUGAUAUGUACCCACUACCUCA
classification: condition not met
